Target: alanyl aminopeptidases (APN) (Homo sapiens, UniProt P15144)
Sequence (P15144 whole entry, species assumed): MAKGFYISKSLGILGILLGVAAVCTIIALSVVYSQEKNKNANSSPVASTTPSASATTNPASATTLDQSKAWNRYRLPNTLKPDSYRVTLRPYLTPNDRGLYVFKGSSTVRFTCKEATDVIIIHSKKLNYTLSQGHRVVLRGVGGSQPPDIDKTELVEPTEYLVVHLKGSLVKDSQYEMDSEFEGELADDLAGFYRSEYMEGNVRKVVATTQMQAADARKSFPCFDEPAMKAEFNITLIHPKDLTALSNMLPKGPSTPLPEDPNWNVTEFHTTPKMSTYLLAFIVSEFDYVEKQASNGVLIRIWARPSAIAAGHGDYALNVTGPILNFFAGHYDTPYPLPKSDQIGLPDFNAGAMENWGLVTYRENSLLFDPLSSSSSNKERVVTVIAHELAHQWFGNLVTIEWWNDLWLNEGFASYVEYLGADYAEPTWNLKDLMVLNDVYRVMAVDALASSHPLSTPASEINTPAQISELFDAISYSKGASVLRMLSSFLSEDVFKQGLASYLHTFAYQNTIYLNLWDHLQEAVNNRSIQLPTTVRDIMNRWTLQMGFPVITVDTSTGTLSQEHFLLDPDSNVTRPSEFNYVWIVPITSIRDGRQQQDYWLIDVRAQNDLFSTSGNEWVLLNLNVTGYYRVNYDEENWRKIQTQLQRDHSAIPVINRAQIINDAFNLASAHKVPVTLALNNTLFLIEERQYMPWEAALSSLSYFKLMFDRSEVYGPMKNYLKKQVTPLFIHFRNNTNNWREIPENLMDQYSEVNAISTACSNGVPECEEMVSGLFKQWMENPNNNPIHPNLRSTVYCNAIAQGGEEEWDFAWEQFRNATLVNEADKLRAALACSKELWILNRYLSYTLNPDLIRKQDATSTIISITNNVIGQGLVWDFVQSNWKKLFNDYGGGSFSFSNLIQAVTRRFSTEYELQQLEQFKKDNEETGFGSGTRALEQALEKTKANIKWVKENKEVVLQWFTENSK
Test: Inhibition of alanyl aminopeptidase enzymatic activity, fluorogenic substrate (Ala)2-rhodamine 110
Assay type: biochemical
Settings: Table 11; read-out: IC50APN
Method: The inhibition characteristics measured are referred to as IC-50 values or ID50 values (the latter marked with “*”) for said enzyme. The enzymatic activity was determined by means of the fluorogenic substrate/product (Ala)2-rhodamine 110.
pIC50: −log10 of the molar value.
assay_endpoint: pIC50

Some compounds with known pIC50 results, for comparison:
INSERT INTO assay_data (compound, assay_system, assay_value) VALUES
  ('O=C(N/N=C(/CC(=O)c1cccs1)C(F)(F)F)c1cccc([N+](=O)[O-])c1', 'alanyl aminopeptidases (APN) (Homo sapiens, UniProt P15144)', 4.97),
  ('C=CCN1C(=O)C(C#N)=C(C)/C(=C\c2ccc(-c3cc(C)c(C)cc3[N+](=O)[O-])o2)C1=O', 'alanyl aminopeptidases (APN) (Homo sapiens, UniProt P15144)', 4.53),
  ('O=C(CNC(=O)c1ccccc1F)N/N=C/c1ccc([N+](=O)[O-])o1', 'alanyl aminopeptidases (APN) (Homo sapiens, UniProt P15144)', 4.22),
  ('CC(=O)N1CCOC1(C)c1ccc([N+](=O)[O-])cc1 (stereo not drawn)', 'alanyl aminopeptidases (APN) (Homo sapiens, UniProt P15144)', 4.48),
  ('COC(=O)c1cc(C(=O)NC2CCSC2=O)cc([N+](=O)[O-])c1 (stereo not drawn)', 'alanyl aminopeptidases (APN) (Homo sapiens, UniProt P15144)', 3.62),
  ('O=C(C[N+](=O)[O-])c1cc2occc2[nH]1', 'alanyl aminopeptidases (APN) (Homo sapiens, UniProt P15144)', 4.31);

[a] O=C(CC1(O)CCCCC1)N/N=C/c1ccccc1[N+](=O)[O-]
[b] C/C(=N\NC(=O)COc1ccc(C)cc1[NH+]([O-])O)c1ccco1 (stereo not drawn)
[c] O=C(Cc1ccc(Br)c2ccccc12)N/N=C/c1ccc([N+](=O)[O-])c(O)c1
(Q) Please put the entries in order of rising pIC50. Present the labels in the sequence the task asks for.
(A) b, a, c
